FYI, the data here is from ChEMBL document CHEMBL6109134.

# Protocol Notes: Protein binding in dog plasma assessed as unbound fraction by ultracentrifugation
Collected fraction unbound values appear next to each entry.

Compound Structure: Cc1cc2cc(C(=O)N(Cc3ccc(C(F)(F)F)cn3)[C@H](C)c3ncccn3)ccc2nc1N
fraction unbound: 0.2
--
Compound Structure: Nc1nc2cnc(C(=O)N3CCOC[C@@H]3c3ccc(C(F)(F)F)cc3)cc2c2c1COC2
fraction unbound: 0.08

---

# Protocol Notes: AUC (0 to t) in CD-1 mouse at 5 mg/kg, po administered as 1% Tween 80, 2% HPMC, 97% water/methane sulfonic acid, pH 2.0 formulation
# Type: ADME, organism-based
# Condition Description: in vivo

Compound Structure: Cc1cc2cc(C(=O)N(Cc3ccc(C(F)(F)F)cn3)[C@H](C)c3ncccn3)ccc2nc1N
Unit Abbrev: µM·h
AUC(0-t): 1.01
